Biological target: Human recombinant FAP (Homo sapiens, UniProt Q12884)
Sequence (Q12884 whole entry): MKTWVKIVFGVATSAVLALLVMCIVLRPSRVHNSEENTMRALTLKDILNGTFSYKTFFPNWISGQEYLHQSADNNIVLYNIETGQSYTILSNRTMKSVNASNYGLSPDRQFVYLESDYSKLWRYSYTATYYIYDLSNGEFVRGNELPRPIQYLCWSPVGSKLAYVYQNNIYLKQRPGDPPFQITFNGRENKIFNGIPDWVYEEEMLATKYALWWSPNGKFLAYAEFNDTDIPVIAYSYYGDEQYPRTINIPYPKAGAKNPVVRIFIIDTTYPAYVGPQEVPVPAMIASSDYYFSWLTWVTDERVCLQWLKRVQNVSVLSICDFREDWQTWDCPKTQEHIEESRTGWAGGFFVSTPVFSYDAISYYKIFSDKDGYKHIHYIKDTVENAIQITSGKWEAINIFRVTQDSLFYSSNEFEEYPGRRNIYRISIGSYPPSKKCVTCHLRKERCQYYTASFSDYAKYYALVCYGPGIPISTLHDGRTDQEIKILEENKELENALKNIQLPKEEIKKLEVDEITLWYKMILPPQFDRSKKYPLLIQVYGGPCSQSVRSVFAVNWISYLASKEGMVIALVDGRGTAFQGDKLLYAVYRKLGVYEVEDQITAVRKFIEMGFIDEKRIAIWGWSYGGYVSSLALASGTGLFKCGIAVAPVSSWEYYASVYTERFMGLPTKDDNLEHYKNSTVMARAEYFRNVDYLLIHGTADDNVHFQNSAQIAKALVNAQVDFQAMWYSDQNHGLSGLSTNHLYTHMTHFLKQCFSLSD
Test: Surface plasmon resonance assay (Biacore T200, single cycle kinetics)
Assay type: binding
Details: SPR, 25°C, 1:1 Langmuir binding model
quantity: pKD (Biacore)

Ask: Please look up its pKD (Biacore): `O=C(O)CN1CCN(CC(=O)O)CCN(CC(=O)NCCCNC(=O)c2ccc(-c3ccc4nccc(C(=O)NCC(=O)N5CCC[C@H]5B(O)O)c4c3)cc2)CCN(CC(=O)O)CC1`
Result: >11

Ask: Param item = `N#C[C@@H]1CCCN1C(=O)CNC(=O)c1ccnc2ccc(-c3ccc(C(=O)NCCCN(CC(=O)O)C(=O)CN4CCN(CC(=O)O)CCN(CC(=O)O)CCN(CC(=O)O)CC4)cc3)cc12` ; retrieve measured pKD (Biacore).
Result: >11

Ask: Please look up its pKD (Biacore): O=C(O)CN1CCN(CC(=O)O)CCN(CC(=O)N2CCN(CCNC(=O)c3cccc(-c4ccc5nccc(C(=O)NCC(=O)N6CCC[C@H]6C(=O)c6nc7ccccc7o6)c5c4)c3)CC2)CCN(CC(=O)O)CC1 [drawing 353]
Result: 10.1

Ask: Dear colleague, I am looking for the recorded pKD (Biacore) of the following molecule: `N#C[C@@H]1CC(F)(F)CN1C(=O)CNC(=O)c1ccnc2ccc(-c3ccc(S(=O)(=O)CCCNC(=O)CN4CCN(CC(=O)O)CCN(CC(=O)O)CCN(CC(=O)O)CC4)cc3)cc12`
Result: >11

Ask: Param item = `N#C[C@@H]1CC(F)(F)CN1C(=O)CNC(=O)c1cc[n+]([O-])c2ccc(-c3ccc(S(=O)(=O)CCCNC(=O)CN4CCN(CC(=O)O)CCN(CC(=O)O)CCN(CC(=O)O)CC4)cc3)cc12` ; retrieve measured pKD (Biacore).
Result: >11

----------
Assign pIC50 (mouseFAP) to each entry below.
Molecular target: Recombinant mouse FAP (Mus musculus, UniProt P97321)
Construct: purchased R&D systems 8647-SE
Sequence (P97321 whole entry): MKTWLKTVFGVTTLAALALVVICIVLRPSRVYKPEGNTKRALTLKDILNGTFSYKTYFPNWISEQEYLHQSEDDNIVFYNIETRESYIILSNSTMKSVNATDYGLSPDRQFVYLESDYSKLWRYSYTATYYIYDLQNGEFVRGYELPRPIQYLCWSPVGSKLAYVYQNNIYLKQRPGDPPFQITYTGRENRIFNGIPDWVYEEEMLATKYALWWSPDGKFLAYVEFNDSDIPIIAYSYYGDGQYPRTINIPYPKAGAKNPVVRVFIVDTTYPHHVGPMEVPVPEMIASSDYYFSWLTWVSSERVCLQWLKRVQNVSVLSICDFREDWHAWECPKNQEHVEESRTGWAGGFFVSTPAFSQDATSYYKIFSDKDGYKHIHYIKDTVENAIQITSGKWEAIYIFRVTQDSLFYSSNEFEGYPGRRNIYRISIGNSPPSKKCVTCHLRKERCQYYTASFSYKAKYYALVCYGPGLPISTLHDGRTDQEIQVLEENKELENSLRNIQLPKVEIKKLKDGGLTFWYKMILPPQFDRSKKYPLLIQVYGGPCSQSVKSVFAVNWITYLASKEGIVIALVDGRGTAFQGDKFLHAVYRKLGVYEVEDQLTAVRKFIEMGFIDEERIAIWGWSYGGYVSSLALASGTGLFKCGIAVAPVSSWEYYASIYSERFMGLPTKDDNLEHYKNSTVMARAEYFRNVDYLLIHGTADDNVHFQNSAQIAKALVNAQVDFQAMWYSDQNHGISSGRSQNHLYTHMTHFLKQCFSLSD
Experiment: FRET-based FAP protease activity assay (mouse)
Type: biochemical
Details: FRET-peptide substrate, 37°C
The response must contain the number and no unit.

Ask: Which value of pIC50 (mouseFAP) has been reported for O=C(O)CN1CCN(CC(=O)O)CCN(CC(=O)NCCCS(=O)(=O)c2ccc(-c3ccc4nccc(C(=O)NCC(=O)N5CCC[C@H]5C(=O)c5nc6ccccc6o5)c4c3)cc2)CCN(CC(=O)O)CC1 [drawing 317] in the records?
Result: 8.6

Ask: Recorded pIC50 (mouseFAP) of O=C(O)CN1CCN(CC(=O)O)CCN(CC(=O)N2CCN(CCNC(=O)c3ccc(-c4ccc5nccc(C(=O)NCC(=O)N6C[C@@H](F)C[C@H]6C(=O)c6nc7ccccc7o6)c5c4)cc3)CC2)CCN(CC(=O)O)CC1 [drawing 360] , please.
Result: 7.9

Ask: Item under review: `N#C[C@@H]1CC(F)(F)CN1C(=O)CNC(=O)c1ccnc2ccc(-c3ccc(C(=O)NCCCNC(=O)CN4CCN(CC(=O)O)CCN(CC(=O)O)CCN(CC(=O)O)CC4)nc3)cc12` . Reported pIC50 (mouseFAP)?
Result: 8.8

Ask: Consider the molecule `O=C(O)CN1CCN(CC(=O)O)CCN(CC(=O)NCCCNC(=O)c2ccc(-c3ccc4nccc(C(=O)NCC(=O)N5CCC[C@H]5C(=O)c5nc6ccccc6o5)c4c3)cc2)CCN(CC(=O)O)CC1` and give its measured pIC50 (mouseFAP).
Result: 8.7

Ask: Which pIC50 (mouseFAP) reading was recorded for the molecule `N#C[C@@H]1CC(F)(F)CN1C(=O)CNC(=O)c1ccnc2ccc(-c3ccc(C(=O)NCCN4CCN(C(=O)CN5CCN(CC(=O)O)CCN(CC(=O)O)CCN(CC(=O)O)CC5)CC4)cc3)cc12` ?
Result: 8.9

----------
Target: Human recombinant FAP (Homo sapiens)
Test: FRET-based FAP protease activity assay (human)
Type: biochemical
Set-up: purchased R&D systems 3715-SE
Details: FRET-peptide substrate, 37°C, read-out: pIC50 (Activity) (converted)
quantity: IC50
Answer with the number, then the unit.

Ask: Entry `CS(=O)(=O)c1cccc(-c2ccc3c(C(=O)NCC(=O)N4CCC[C@H]4C#N)ccnc3c2)c1` : reported IC50 = ?
Result: 2 nM

Ask: What does the record list as IC50 for `CCOc1cccc2c(C(=O)NCC(=O)N3CC(F)(F)C[C@H]3C#N)ccnc12` ?
Result: 3.16 nM

Ask: Name the recorded IC50 for `Cc1cc(S(C)(=O)=O)ccc1-c1ccc2nccc(C(=O)NCC(=O)N3CC(F)(F)C[C@H]3C#N)c2c1` .
Result: 0.501 nM

Ask: Find the recorded IC50 belonging to `CS(=O)(=O)c1cc(F)c(-c2ccc3nccc(C(=O)NCC(=O)N4CCC[C@H]4C#N)c3c2)c(F)c1` and report it.
Result: 0.501 nM

Ask: Could you share which IC50 value was measured for `CC(C)(C)OC(=O)N1CC[N+]([O-])(CCCOc2ccc3nccc(C(=O)NCC(=O)N4CC(F)(F)C[C@H]4C#N)c3c2)CC1` ?
Result: 1 nM

Ask: IC50 lookup needed for `O=C(NCC(=O)N1CCC[C@H]1C(=O)c1nc2ccccc2o1)c1ccnc2ccccc12` , thanks.
Result: 1.58 nM

Ask: May I ask what IC50 has been recorded for `N#C[C@@H]1CCCN1C(=O)CNC(=O)c1ccnc2cc(-c3cccc(C(=O)O)c3)ccc12` ?
Result: 1.58 nM

Ask: # lookup: IC50 of `Cc1cc(S(C)(=O)=O)ccc1-c1ccc2nccc(C(=O)NCC(=O)N3CCC[C@H]3C#N)c2c1`
Result: 0.631 nM

----------
Biological target: recombinant human PREP (Homo sapiens, UniProt P48147)
Construct: purchased R&D systems 4308-SE
Sequence (P48147 whole entry): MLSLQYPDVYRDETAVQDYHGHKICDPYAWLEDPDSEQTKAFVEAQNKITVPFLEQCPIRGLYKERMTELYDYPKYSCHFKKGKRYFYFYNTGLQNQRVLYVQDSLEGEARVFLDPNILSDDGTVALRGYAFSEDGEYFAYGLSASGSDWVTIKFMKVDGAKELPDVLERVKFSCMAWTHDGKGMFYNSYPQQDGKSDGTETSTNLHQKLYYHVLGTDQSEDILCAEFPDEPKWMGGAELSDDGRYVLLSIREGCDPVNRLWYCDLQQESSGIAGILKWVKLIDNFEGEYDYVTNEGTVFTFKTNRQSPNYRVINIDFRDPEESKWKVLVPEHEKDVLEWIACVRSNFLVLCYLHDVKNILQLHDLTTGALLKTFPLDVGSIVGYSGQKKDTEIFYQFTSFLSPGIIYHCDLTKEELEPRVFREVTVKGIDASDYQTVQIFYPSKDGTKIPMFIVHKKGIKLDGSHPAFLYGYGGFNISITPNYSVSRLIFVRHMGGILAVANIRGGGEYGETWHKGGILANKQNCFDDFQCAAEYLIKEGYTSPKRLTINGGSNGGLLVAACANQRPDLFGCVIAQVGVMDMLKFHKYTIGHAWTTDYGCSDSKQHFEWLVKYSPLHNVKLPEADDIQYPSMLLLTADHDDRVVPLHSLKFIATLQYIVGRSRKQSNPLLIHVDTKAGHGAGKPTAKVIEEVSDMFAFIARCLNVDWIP
Test: PREP protease activity assay
Type: biochemical
Details: 50 µM Z-GP-AMC substrate
quantity: pIC50 (PREP)
Just the number, please, no unit after it.

Ask: Can you look up the measured pIC50 (PREP) of `O=C(O)CN1CCN(CC(=O)O)CCN(CC(=O)N2CCN(CCCOc3ccc4nccc(C(=O)NCC(=O)N5CC(F)(F)C[C@H]5C(=O)c5nc6ccccc6o5)c4c3)CC2)CCN(CC(=O)O)CC1` for me?
Result: 6.7

Ask: // lookup pIC50 (PREP) for `O=C(O)CN1CCN(CC(=O)O)CCN(CC(=O)NCCCNC(=O)c2ccc(-c3ccc4nccc(C(=O)NCC(=O)N5CCC[C@H]5C(=O)c5nc6ccccc6o5)c4c3)cc2)CCN(CC(=O)O)CC1`
Result: 8.2

Ask: Which value of pIC50 (PREP) has been reported for `O=C(O)CN1CCN(CC(=O)O)CCN(CC(=O)NCCCNC(=O)c2ccc(-c3ccc4nccc(C(=O)NCC(=O)N5CCC[C@H]5B(O)O)c4c3)cc2)CCN(CC(=O)O)CC1` in the records?
Result: 8.2

Ask: Look at this compound and give its reported pIC50 (PREP). `N#C[C@@H]1CCCN1C(=O)CNC(=O)c1cc[n+]([O-])c2ccccc12`
Result: 6.3

Ask: What value of measured pIC50 (PREP) is listed for O=C(O)CN1CCN(CC(=O)O)CCN(CC(=O)N2CCN(CCNC(=O)c3ccc(-c4ccc5nccc(C(=O)NCC(=O)N6CCC[C@H]6C(=O)c6nc7ccccc7o6)c5c4)cn3)CC2)CCN(CC(=O)O)CC1 [drawing 361] ?
Result: 7.9

Ask: Please look up its pIC50 (PREP): O=C(O)CN1CCN(CC(=O)O)CCN(CC(=O)N2CCN(CCNC(=O)c3ccc(-c4ccc5nccc(C(=O)NCC(=O)N6CCC[C@H]6C(=O)c6nc7ccccc7o6)c5c4)cc3)CC2)CCN(CC(=O)O)CC1 [drawing 354]
Result: 8.2

Ask: Form field: reported pIC50 (PREP) of O=C(O)CN1CCN(CC(=O)O)CCN(CC(=O)N2CCN(CCNC(=O)c3cccc(-c4ccc5nccc(C(=O)NCC(=O)N6CCC[C@H]6C(=O)c6nc7ccccc7o6)c5c4)c3)CC2)CCN(CC(=O)O)CC1 [drawing 353]
Result: 7.8

Ask: Tell me the measured pIC50 (PREP) of O=C(O)CN1CCN(CC(=O)O)CCN(CC(=O)N2CCN(CCCOc3ccc4nccc(C(=O)NCC(=O)N5CCC[C@H]5C(=O)c5nc6ccccc6o5)c4c3)CC2)CCN(CC(=O)O)CC1 [drawing 357] , please.
Result: 8.6

Ask: Find the recorded pIC50 (PREP) belonging to O=C(O)CN1CCN(CC(=O)O)CCN(CC(=O)N2CCN(CCNC(=O)c3ccc(-c4ccc5c(C(=O)NCC(=O)N6CCC[C@H]6C(=O)c6nc7ccccc7o6)ccnc5c4)cc3)CC2)CCN(CC(=O)O)CC1 [drawing 355] and report it.
Result: 8.7

----------
Give % intact compound remaining after incubation for every item shown.
Assay: Plasma stability assay, mouse plasma
Format: in vitro ADME
Conditions: 37°C, 4 h

Ask: What % intact compound remaining after incubation value was documented for this molecule, CS(=O)(=O)c1cccc(-c2ccc3nccc(C(=O)NCC(=O)N4CC(F)(F)C[C@H]4C#N)c3c2)c1 [Compound 3BP-3126] ?
Result: 78% (4 h)

Ask: Consider the molecule O=C(NCC(=O)N1CCC[C@H]1C(=O)c1ncco1)c1ccnc2ccccc12 [Compound 3BP-3208] and give its measured % intact compound remaining after incubation.
Result: 92% (4 h)

Ask: Look up % intact compound remaining after incubation: O=C(NCC(=O)N1CCC[C@H]1C(=O)c1nc2ccccc2o1)c1ccnc2c1=CCCC=2 [Compound 3BP-3205]
Result: > 95% (4 h)

Ask: What value of measured % intact compound remaining after incubation is listed for CS(=O)(=O)c1ccc(-c2ccc3c(C(=O)NCC(=O)N4CCC[C@H]4C#N)ccnc3c2)cc1 [Compound 3BP-3128] ?
Result: > 95% (4 h)

Ask: Any idea what % intact compound remaining after incubation was measured for CS(=O)(=O)c1cccc(-c2ccc3c(C(=O)NCC(=O)N4CC(F)(F)C[C@H]4C#N)ccnc3c2)c1 [Compound 3BP-3127] ?
Result: > 95% (4 h)
